METHOD SUMMARY: Hematology assays in cynomolgus monkeys (Example 45)
Type: in vivo
CONDITION DESCRIPTION: day 50; escalating dose regimen
The entries below are paired with their reported hematocrit.
Reply with just the number (in %).

Examples from the recorded data:
1) ISIS 416838: MOE gapmer, nucleobases 1018 to 1042 of SEQ ID NO: 1 (Table 6) (antisense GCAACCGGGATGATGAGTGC; MOE gapmer, wing and gap sizes not given here): 44
2) ISIS 417002: MOE gapmer, nucleobases 1275 to 1318 of SEQ ID NO: 1 (Table 8) (antisense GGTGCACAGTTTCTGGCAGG; MOE gapmer, wing and gap sizes not given here): 43
3) ISIS 416858: MOE gapmer, nucleobases 1275 to 1318 of SEQ ID NO: 1 (Table 8) (antisense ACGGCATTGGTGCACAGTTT; MOE gapmer, wing and gap sizes not given here): 41
4) ISIS 416850: MOE gapmer, nucleobases 1275 to 1318 of SEQ ID NO: 1 (Table 8) (antisense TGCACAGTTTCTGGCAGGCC; MOE gapmer, wing and gap sizes not given here): 42

hematocrit measured on ISIS 416864: MOE gapmer, nucleobases 1275 to 1318 of SEQ ID NO: 1 (Table 8) (antisense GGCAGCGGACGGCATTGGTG; MOE gapmer, wing and gap sizes not given here) = 44
